pKi: −log10 of the molar value.
Listed below are compounds with pKi for UniProtKB P03951, each taken from published literature.
pKi below 7 gives Not satisfied; pKi at or above it gives Satisfied.

Solved cases (5 shown):
[
  {
    "Compound": "C[C@@H]1CCC[C@H](N2CCC(c3cc(Cl)ccc3-n3cccn3)=CC2=O)c2cc(ccn2)-c2c(cnn2C)NC1=O",
    "System Under Test": "UniProtKB P03951",
    "Cat": "Satisfied"
  },
  {
    "Compound": "NC[C@H]1CC[C@H](C(=O)NC(Cc2ccccc2)c2cc(-c3ccc4c(N)noc4c3)ccn2)CC1 (mixture of isomers)",
    "System Under Test": "UniProtKB P03951",
    "Cat": "Satisfied"
  },
  {
    "Compound": "COC(=O)Nc1ccc2c(c1)NC(=O)CCc1cccc(n1)C[C@H](NC(=O)/C=C/c1cc(Cl)ccc1-n1cnnn1)c1nc-2c[nH]1",
    "System Under Test": "UniProtKB P03951",
    "Cat": "Satisfied"
  },
  {
    "Compound": "COC(=O)Nc1ccc2c(c1)NC(=O)CCC(C)CC[C@H](NC(=O)/C=C/c1cc(Cl)ccc1-n1cnnn1)c1nc-2c[nH]1 (single isomer, unassigned; diastereomer B)",
    "System Under Test": "UniProtKB P03951",
    "Cat": "Satisfied"
  },
  {
    "Compound": "COC(=O)Nc1ccc2c(c1)CCCCc1cccc(c1)C[C@H](NC(=O)/C=C/c1cc(Cl)ccc1-n1cnnn1)c1nc-2c[nH]1",
    "System Under Test": "UniProtKB P03951",
    "Cat": "Satisfied"
  }
]

Entry COC(=O)Nc1ccc2c(c1)NC(=O)C[C@@H](C)CCC[C@H](NC(=O)c1c(F)cc(C)cc1F)c1nc-2c(Cl)[nH]1 : is its pKi no less than 7? Satisfied

What would you report for NC[C@H]1CC[C@H](C(=O)NC(Cc2ccccc2)c2cc(-c3ccc(N)c(C(=O)O)c3)ccn2)CC1 (mixture of isomers) ? Satisfied

What would you report for Cn1c(C(Cc2ccccc2)NC(=O)[C@H]2CC[C@H](CN)CC2)cc(-c2ccccc2)cc1=O (mixture of isomers) ? Not satisfied

What would you report for C[C@]1(c2ccccc2)C[C@@H](c2cccc(-c3ccc(C#N)cc3C(=O)O)c2)Nc2ccc(C(=N)N)cc21 (racemic) ? Satisfied

What would you report for CC(C)CC(=O)Nc1cc(-c2ccc(C(N)=O)cc2C(=O)O)cc(C2CC(C)(c3ccccc3)c3cc(C(=N)N)ccc3N2)c1 (single isomer, unassigned; enantiomer 2) ? Satisfied

What would you report for CCn1ncc2c1-c1ccnc(c1)[C@@H](N1CCC(c3cc(Cl)ccc3-n3ccnn3)=CC1=O)CCC[C@@H](C)C(=O)N2 ? Satisfied

What would you report for NC[C@H]1CC[C@H](C(=O)NC(Cc2ccccc2)c2cc(-c3ccccc3)ccn2)CC1 (mixture of isomers) ? Not satisfied

What would you report for NC[C@H]1CC[C@H](C(=O)N[C@@H](Cc2ccccc2)c2cc(-c3ccc4[nH]nc(O)c4c3)ccn2)CC1 ? Satisfied

What would you report for COC(=O)Nc1ccc2c(c1)CNC(=O)c1ccc(cc1)C[C@H](NC(=O)/C=C/c1cc(Cl)ccc1-n1cnnn1)c1nc-2c[nH]1 ? Not satisfied

What would you report for Cc1nc(-c2cccc(Cl)c2F)n(O)c1C(=O)N[C@@H](Cc1ccccc1)C(=O)Nc1ccc(C(=O)O)cc1 ? Not satisfied

What would you report for COC(=O)Nc1ccc2c(c1)NC(=O)[C@H](C)CCC[C@H](NC(=O)/C=C/c1cc(Cl)ccc1-n1cnnn1)c1nc-2c(Cl)[nH]1 ? Satisfied

What would you report for NC[C@H]1CC[C@H](C(=O)NC(Cc2ccccc2)c2cc(-c3ccccc3)ncn2)CC1 (mixture of isomers) ? Not satisfied

What would you report for Nc1nccc2cc(NC3C(=O)NCc4cccc(c4)NC(=O)OCCc4ccc3cc4)ccc12 (centres undefined) ? Not satisfied

What would you report for Cc1nc(-c2cccc(Cl)c2F)n(O)c1C(=O)N[C@@H](Cc1ccc(NC(=O)C2CCCC2)cc1)C(=O)Nc1ccc2[nH]c(C(=O)O)cc2c1 ? Satisfied

What would you report for NC[C@H]1CC[C@H](C(=O)N[C@@H](Cc2ccccc2)c2nc(-c3ccc4c(N)n[nH]c4c3)c[nH]2)CC1 ? Satisfied

What would you report for COC(=O)Nc1ccc(-c2cc([C@H](Cc3ccccc3)NC(=O)/C=C/c3cc(Cl)ccc3-n3cnnn3)ncn2)cc1 ? Satisfied

What would you report for Cc1nc(-c2cccc(Cl)c2F)[nH]c1C(=O)N[C@@H](Cc1ccccc1)C(=O)Nc1ccc(C(=O)O)cc1 ? Not satisfied

* * *

Listed below are compounds with pKi for Coagulation factor XI (Homo sapiens, UniProt P03951), each taken from published literature.
pKi: −log10 of the molar value.
pKi below 7 gives rule not met; pKi at or above it gives rule met.

Solved cases (5 shown):
[
  {
    "Compound": "Cc1nc(-c2cccc(C#N)c2)n(O)c1C(=O)O",
    "Cat": "rule not met"
  },
  {
    "Compound": "CNC(=O)c1nnc([C@H](Cc2ccccc2)NC(=O)/C=C/c2cc(Cl)ccc2-n2cnnn2)cc1-c1ccc(NC(=O)OC)cc1",
    "Cat": "rule met"
  },
  {
    "Compound": "NC[C@H]1CC[C@H](C(=O)NC(Cc2ccccc2)c2cc(-c3ccccc3)c[n+]([O-])c2)CC1 (mixture of isomers)",
    "Cat": "rule not met"
  },
  {
    "Compound": "COC(=O)Nc1ccc2c(c1)NC(=O)[C@H](C)CCC[C@H](N1CCC(c3c(F)ccc(Cl)c3F)NC1=O)c1cc-2ccn1 (stereo partly specified)",
    "Cat": "rule met"
  },
  {
    "Compound": "O=C(N[C@H]1COC[C@H]1NC(=O)c1ccc(Cl)s1)c1ccc(-n2ccccc2=O)cc1",
    "Cat": "rule not met"
  }
]

Entry NC[C@H]1CC[C@H](C(=O)N[C@H](Cc2ccccc2)c2cccc(-c3ccc4c(N)n[nH]c4c3)c2)CC1 : is its pKi no less than 7? rule not met

What would you report for COC(=O)Nc1ccc2c(c1)NC(=O)[C@H](C)CCC[C@H](N1CC[C@H](c3c(F)ccc(Cl)c3F)OC1=O)c1cncc-2c1 ? rule met

What would you report for NC[C@H]1CC[C@H](C(=O)NC(Cc2ccccc2)c2cccc(-c3ccccc3)c2)CC1 (mixture of isomers) ? rule not met

What would you report for COC(=O)Nc1ccc(-c2cc([C@H](Cc3ccncc3)NC(=O)/C=C/c3cc(Cl)ccc3-n3cnnn3)nnc2Cl)cc1 ? rule met

What would you report for COC(=O)Nc1ccc(-c2cc([C@H](Cc3ccccc3)NC(=O)/C=C/c3cc(Cl)ccc3-n3cnnn3)c(Cl)nn2)cc1 ? rule met

What would you report for COC(=O)Nc1ccc2c(c1)NC(=O)C[C@@H](C)/C=C/C[C@H](NC(=O)c1c(F)cc(C)cc1F)c1nc-2c(Cl)[nH]1 ? rule met

What would you report for C[C@@H]1COC(=O)Nc2cccc(c2)CNC(=O)C(Nc2ccc3c(N)nccc3c2)c2ccc1cc2 (stereo partly specified) ? rule not met

What would you report for O=C(N[C@H]1C[C@H](C(=O)O)C[C@H]1NC(=O)c1ccc(Cl)s1)c1ccc(-n2ccccc2=O)cc1 ? rule not met

What would you report for CN(C)Cc1ccc(-c2cccc([C@@H]3C[C@](C)(c4ccccc4)c4cc(C(=N)N)ccc4N3)c2)c(C(=O)O)c1 (racemic) ? rule not met

* * *

Listed below are molecules with pKi for Coagulation factor XI (Homo sapiens, UniProt P03951), each taken from published literature.
pKi: −log10 of the molar value.
pKi below 8 gives 0; pKi at or above it gives 1.

Solved cases (5 shown):
[
  {
    "Molecule": "COC(=O)Nc1ccc(-c2ccnc([C@H](Cc3ccccc3)NC(=O)/C=C/c3cc(Cl)ccc3-n3cnnn3)c2)cc1",
    "Cat": 0
  },
  {
    "Molecule": "CC(=O)Nc1ccc(C[C@H](NC(=O)c2c(C)nc(-c3cccc(Cl)c3F)n2O)C(=O)Nc2ccc3[nH]c(C(=O)O)cc3c2)cc1",
    "Cat": 0
  },
  {
    "Molecule": "Cc1nc(-c2cccc(Cl)c2F)n(O)c1C(=O)N[C@@H](Cc1ccc(F)cc1)C(=O)Nc1ccc2[nH]c(C(=O)O)cc2c1",
    "Cat": 0
  },
  {
    "Molecule": "N=C(N)c1ccc2c(c1)[C@@H](c1ccccc1)C[C@@H](c1cccc(-c3ccc(C(=O)O)cc3C(=O)O)c1)N2 (racemic)",
    "Cat": 1
  },
  {
    "Molecule": "COC(=O)Nc1ccc2c(c1)NC(=O)[C@H](C)CCC[C@H](N1CCN(c3c(F)ccc(Cl)c3F)CC1=O)c1cc-2ccn1",
    "Cat": 1
  }
]

Here's the next entry for you.
Entry CC(C)CC(=O)Nc1cc(-c2ccc(C(N)=O)cc2C(=O)O)cc([C@@H]2C[C@](C)(c3ccccc3)c3cc(C(=N)N)ccc3N2)c1 (racemic) : is its pKi no less than 8? 1
